Experiment: S. cerevisiae growth modulation with rapamycin, primary screen, strain BY4716, OD600, 96 h (AID 1091); note: test concentration not given here
Details: higher = more signal, called active from +8 up or from −8 down

{"compound": "C=C(CC1([C@@H](NP(=O)(c2ccccc2)c2ccccc2)[C@H]2C[C@@H]2CCCC)CC1)c1ccccc1", "z-score": 3.83}
{"compound": "COc1ccc(-c2cc3c(c(-c4ccc(Oc5ccccc5)cc4)n2)[Si](C(C)C)(C(C)C)OC3)cn1", "z-score": 1.88}
{"compound": "CCCC=C(CCC)[C@@H](NC(=O)c1cccs1)c1ccc(C(F)(F)F)cc1", "z-score": -0.851}
{"compound": "N#Cc1ccc(NN2C(C(O)C(c3ccccc3)c3ccccc3)C=CC3C(=O)N(c4ccccc4)C(=O)C32)cc1 (configuration not stated)", "z-score": 5.53}
{"compound": "COc1ccc([Si](C)(C)[C@H]2[C@H](CC(=O)N3Cc4ccccc4C[C@H]3CO)O[C@@]3(C(=O)N(Cc4cccc(N5CCC5=O)c4)c4ccccc43)[C@@H]2C)cc1", "z-score": 1.98}
{"compound": "COC(=O)[C@@]1(Cc2ccc(F)cc2)[C@H]2c3cc(C(=O)N(C)C)n(Cc4cc(F)c(F)c(F)c4)c3C[C@H]2CN1C(=O)c1ccccc1", "z-score": 2.54}
{"compound": "C=CCNC(=O)[C@H]1[C@@H]2C(=O)O[C@@H](c3ccccc3)[C@@H](c3ccccc3)N2[C@@H](c2ccccc2OCCO)[C@]12C(=O)Nc1ccc(C#CCC(C(=O)OC)C(=O)OC)cc12", "z-score": 5.92}

###

Test: inhibitors of hydroxyurea-induced Chk1 phosphorylation, primary screen, imaging, HeLa, phospho-Chk1 nuclear intensity (AID 1187); note: test concentration not given here
Settings: hydroxyurea-induced phospho-Chk1 immunofluorescence imaging, higher = more signal

{"molecule": "COc1cc2c(cc1O)C(c1cccs1)N(C)CC2 (stereo not drawn)", "z-score": -0.628}
{"molecule": "[N-]=[N+]=Nc1ccccc1[C@@H]1OC(c2ccc(OCCCO)cc2)=N[C@]1(Cc1ccccc1)C(=O)N1CCOCC1", "z-score": -0.0135}
{"molecule": "COc1ccc(C(O)C2C=CC3C(=O)N(Cc4ccccc4)C(=O)C3N2n2cnnc2)cc1OCc1ccccc1 (stereo not drawn)", "z-score": -0.462}
{"molecule": "COCCOC(=O)N1C(=O)[C@@]2(c3ccccc31)[C@H](C(=O)N1CCc3cc(OC)c(OC)cc3C1)[C@H]1C(=O)O[C@H](c3ccccc3)[C@H](c3ccccc3)N1[C@@H]2c1ccc(OCCO)cc1", "z-score": 0.55}
{"molecule": "COC(=O)[C@@]1(Cc2ccc(OC)cc2)[C@@H]2C(=CC(=O)[C@H]2CC(=O)C(=O)N2CCCC2)CN1C(=O)c1ccccc1", "z-score": -0.277}
{"molecule": "O=C(OCc1ccccc1)C1=CCC2c3[nH]c4ccccc4c3C(=O)C1N2S(=O)(=O)c1ccccc1[N+](=O)[O-] (stereo not drawn)", "z-score": -1.44}
{"molecule": "C[C@H]1C2[C@H](Cc3ccccc3)NC(=O)[C@]23C(=O)N[C@H](Cc2ccccc2)C(=O)N2CCC[C@H]2C(=O)NC/C=C\\C/C=C/C3[C@@H]2O[C@]12C (stereo partly drawn)", "z-score": -0.104}
{"molecule": "C=CCOC(=O)[C@@H]1[C@H]2C(=O)O[C@H](c3ccccc3)[C@H](c3ccccc3)N2[C@H](c2ccc(OCCOC(=O)[C@H]3C[C@H]4C(=O)N5CCC[C@H]5C(=O)N4[C@H]3c3ccc(O)cc3)cc2)[C@@]12C(=O)Nc1ccc(I)cc12", "z-score": 0.0454}
{"molecule": "COc1ccc(-c2cc3c(c(-c4ccc(Oc5ccccc5)cc4)n2)[Si](C(C)C)(C(C)C)OC3)cn1", "z-score": 0.0655}
{"molecule": "C=C[C@H](OC)[C@@H](OC(=O)Nc1ccc(OC)cc1)c1ccc(O)c(F)c1", "z-score": 0.76}
{"molecule": "COCCCNC(=O)[C@@H]1c2ccccc2C(=O)N(Cc2ccccc2Cl)[C@H]1c1ccc(CO)cc1", "z-score": -0.352}
{"molecule": "COCCOC(=O)N1C(=O)[C@@]2(c3cc(C#Cc4ccc(OC)cc4)ccc31)[C@H](c1ccc(O)cc1)N1[C@H](c3ccccc3)[C@H](c3ccccc3)OC(=O)[C@H]1[C@@H]2C(=O)N1CCc2cc(OC)c(OC)cc2C1", "z-score": 0.948}
{"molecule": "CCCC[C@@H]1C[C@H]1[C@@H](NC(=O)c1ccccc1)c1ccc(C(=O)OC)cc1", "z-score": 0.454}
{"molecule": "Cc1ccc(S[C@]2(C(=O)NCCCN(C)C)CC(=O)N(Cc3cc(C(F)(F)F)cc(C(F)(F)F)c3)[C@@H]2c2ccc(CO)cc2)cc1", "z-score": -0.331}
{"molecule": "CC(=O)n1cc(C(O)C2C=CC3C(=O)N(c4ccccc4)C(=O)C3N2Nc2ccc([N+](=O)[O-])cc2)c2ccccc21 (stereo not drawn)", "z-score": -0.219}
{"molecule": "CCCC[C@@H]1C[C@H]1[C@@H](NC(=O)c1cccs1)c1ccc(-c2ccccc2)cc1", "z-score": 0.0204}
{"molecule": "COc1cc2c(cc1OC)CN(C(=O)[C@H]1[C@@H]3C(=O)O[C@@H](c4ccccc4)[C@@H](c4ccccc4)N3[C@@H](c3ccc(O)cc3)[C@]13C(=O)Nc1ccc(C#CCCO)cc13)CC2", "z-score": 0.393}
{"molecule": "COc1ccc([Si](C)(C)[C@@H]2[C@@H](CC(=O)N3CCC[C@H]3CO)O[C@]3(C(=O)N(c4ccccc4)c4ccccc43)[C@H]2C)cc1", "z-score": -1.31}
{"molecule": "CC(C)C(=C=CC[C@@H](O)c1ccc(OCCO)cc1)C[C@@H](O)c1ccccn1", "z-score": -0.22}
{"molecule": "CC(C)C(O)C1C=CC2C(=O)NC(=O)C2N1Nc1ccc(Cl)cc1Cl (stereo not drawn)", "z-score": 0.237}
{"molecule": "CC(=O)NCCCC[C@@H]1NC(=O)[C@H]2C[C@@H](C(=O)NCCCCCCNC(=O)CS)[C@@H](c3ccc(O)cc3)N2C1=O", "z-score": 0.663}
{"molecule": "CC1CC/C=C\\[C@H]2OC34C=CCN(Cc5ccccc5)C(=O)[C@H]3N(CCCO)C(=O)[C@@H]4C2C(=O)O1 (stereo partly drawn)", "z-score": -0.491}
{"molecule": "CN(C)CCCC[C@@H]1NC(=O)[C@H]2C[C@@H](C(=O)NCCCCCCN)[C@@H](c3ccc(O)cc3)N2C1=O", "z-score": 0.362}
{"molecule": "CC(C)C[C@@H]1NC(=O)[C@@H]2C[C@H](C(=O)O)[C@H](c3cccc(OCCO)c3)N2C1=O", "z-score": 0.153}
{"molecule": "O=C1O[C@H](c2ccccc2)[C@H](c2ccccc2)N2[C@H]1[C@@H](C(=O)N1CCCCCCC1)[C@]1(C(=O)Nc3ccc(C#CCCO)cc31)[C@H]2c1ccccc1OCCO", "z-score": 0.259}
{"molecule": "Oc1ccc2cc[n+](Cc3sc4ccccc4c3Cl)cc2c1", "z-score": -0.106}
{"molecule": "C=CCC(OC(C)=O)[C@@H]1[C@@H](N(Cc2cc3ccccc3o2)C(=O)c2cccc3ccccc23)c2cc(OCCCO)ccc2N1C(=O)c1ccc(-c2ccccc2)cc1 (stereo partly drawn)", "z-score": 0.577}
{"molecule": "COc1ccc([Si](C)(C)[C@H]2[C@H](CCO)O[C@@]3(C(=O)N(Cc4ccc(N(C=O)c5ccccc5)cc4)c4ccccc43)[C@@H]2C)cc1", "z-score": -0.123}

###

Target: Fibroblast growth factor 10 (Homo sapiens)
Assay: FGF10 binders on small-molecule microarrays, primary screen, biochemical, small-molecule microarray, 635 nm fluorescence (AID 1102)
Conditions: FGF10 binding, fluorescence 635 nm, higher = more signal
Rule: rule met for composite z-score not less than 0.8, rule not met for anything less.

{"molecule": "COc1ccc(C#Cc2ccc3c(c2)[C@]2(C(=O)N3)[C@H](C(=O)NC[C@H](O)c3ccccc3)[C@H]3C(=O)O[C@H](c4ccccc4)[C@H](c4ccccc4)N3[C@@H]2c2ccc(O)cc2)cc1", "class_assignment": "rule met"}
{"molecule": "CCCCCN1CC=CC23O[C@@H]4C=CCCOC(=O)C4[C@H]2C(=O)N(CCCCCO)[C@@H]3C1=O (some centres not stated)", "class_assignment": "rule not met"}
{"molecule": "CN(C)CCCCCCNC(=O)[C@@H]1C[C@@H]2C(=O)N[C@@H](Cc3ccccc3)C(=O)N2[C@@H]1c1ccc(O)cc1", "class_assignment": "rule met"}
{"molecule": "COCCOC(=O)N1C(=O)[C@@]2(c3cc(C#CC4(O)CCCCCC4)ccc31)[C@H](c1ccccc1OCCO)N1[C@H](c3ccccc3)[C@H](c3ccccc3)OC(=O)[C@H]1[C@@H]2C(=O)N1CCN(c2ncccn2)CC1", "class_assignment": "rule met"}
{"molecule": "CCCCC(CC)C(O)C1C=CC2C(=O)N(Cc3ccccc3)C(=O)C2N1n1cnnc1 (configuration not stated)", "class_assignment": "rule not met"}
{"molecule": "CO[C@H]1O[C@H](CO)[C@@H](OC(=O)Nc2cccc(F)c2)[C@H](OC(=O)Nc2ccccc2)[C@@H]1OC(=O)Nc1ccccc1", "class_assignment": "rule met"}
{"molecule": "O=C1NC(=O)C2C1C=CC(C(O)c1cccs1)N2Nc1ccc(Cl)cc1Cl (configuration not stated)", "class_assignment": "rule not met"}
{"molecule": "COc1cc2c(cc1OC)CN(C(=O)[C@@H]1[C@H]3C(=O)O[C@H](c4ccccc4)[C@H](c4ccccc4)N3[C@H](c3ccccc3OCCO)[C@@]13C(=O)Nc1ccc(C#CCCO)cc13)CC2", "class_assignment": "rule met"}
{"molecule": "CN(C)CCCC[C@@H]1NC(=O)[C@H]2C[C@@H](C(=O)NCCCCCCN)[C@@H](c3ccc(O)cc3)N2C1=O", "class_assignment": "rule met"}
{"molecule": "O=C1N[C@@H](Cc2ccccc2)C(=O)N2[C@@H]1C[C@@H](C(=O)O)[C@H]2c1cccc(OCCO)c1", "class_assignment": "rule met"}
{"molecule": "O=C1c2ccccc2[C@](Cc2ccccc2I)(C(=O)NCCN2CCOCC2)[C@H](c2ccc(CO)cc2)N1Cc1ccccc1Cl", "class_assignment": "rule met"}
{"molecule": "C=CCNC(=O)[C@H]1[C@@H]2C(=O)O[C@@H](c3ccccc3)[C@@H](c3ccccc3)N2[C@@H](c2ccccc2OCCO)[C@]12C(=O)Nc1ccc(C#CCCO)cc12", "class_assignment": "rule met"}
{"molecule": "COC(=O)[C@@]1(Cc2ccc(F)cc2)[C@H]2c3cc(C(=O)N(C)C)n(Cc4cc(F)c(F)c(F)c4)c3C[C@H]2CN1C(=O)c1ccccc1", "class_assignment": "rule met"}
{"molecule": "CCN(CC)c1ccc(N2CC=CC34O[C@@H]5C=CCCOC(=O)C5[C@H]3C(=O)N(CCCCCCO)[C@@H]4C2=O)cc1 (some centres not stated)", "class_assignment": "rule not met"}
{"molecule": "CC1CC/C=C\\[C@H]2OC34C=CCN(Cc5ccccc5)C(=O)[C@H]3N(CCCO)C(=O)[C@@H]4C2C(=O)O1 (some centres not stated)", "class_assignment": "rule not met"}
{"molecule": "COc1ccc([Si](C)(C)[C@@H]2[C@@H](CCO)O[C@]3(C(=O)N(Cc4ccc(N(C=O)c5ccccc5)cc4)c4ccccc43)[C@H]2C)cc1", "class_assignment": "rule not met"}
{"molecule": "COc1ccc(C(O)C2C=CC3C(=O)N(Cc4ccccc4)C(=O)C3N2n2cnnc2)cc1OCc1ccccc1 (configuration not stated)", "class_assignment": "rule not met"}
{"molecule": "CC(C)NC(=O)[C@@H]1c2ccccc2C(=O)N(C2Cc3ccccc3C2)[C@H]1c1ccc(CO)cc1", "class_assignment": "rule not met"}
{"molecule": "COC(=O)[C@@]1(Cc2ccc(OC)cc2)[C@H]2c3cc(C(=O)N4CCCC4)n(Cc4ccc(O)c(OC)c4)c3C[C@H]2CN1C(=O)c1ccccc1", "class_assignment": "rule not met"}
{"molecule": "CC(C)NC(=O)[C@@]1(C)c2ccccc2C(=O)N(Cc2cc(C(F)(F)F)cc(C(F)(F)F)c2)[C@H]1c1ccc(CO)cc1", "class_assignment": "rule not met"}
{"molecule": "COc1ccccc1CN1C(=O)c2ccccc2[C@@]2(Cc3ccccc3N(CC(C)C)C2=O)[C@@H]1c1ccc(CO)cc1", "class_assignment": "rule not met"}
{"molecule": "COCCOC(=O)N1C(=O)[C@@]2(c3cc(C#Cc4ccc(OC)cc4)ccc31)[C@H](c1ccc(O)cc1)N1[C@H](c3ccccc3)[C@H](c3ccccc3)OC(=O)[C@H]1[C@@H]2C(=O)N1CCc2cc(OC)c(OC)cc2C1", "class_assignment": "rule not met"}
{"molecule": "C[N+](C)(C)CCCCNC(=O)[C@H]1C[C@H]2C(=O)N3CCC[C@H]3C(=O)N2[C@H]1c1cccc(OCCO)c1", "class_assignment": "rule not met"}
{"molecule": "COCCOC(=O)N1C(=O)[C@@]2(c3ccccc31)[C@H](C(=O)N1CCc3cc(OC)c(OC)cc3C1)[C@H]1C(=O)O[C@H](c3ccccc3)[C@H](c3ccccc3)N1[C@@H]2c1ccc(OCCO)cc1", "class_assignment": "rule met"}
{"molecule": "O=C1N(Cc2ccccc2)c2ccccc2[C@@H]2OC(c3ccc(OCCCO)cc3)=N[C@]12CCS(=O)(=O)c1ccccc1", "class_assignment": "rule not met"}
